Please respond with reported cleaved RNA product abundance for every item in the list.
# Test system: Bacillus subtilis
# experiment-notes: cleaved RNA product abundance (RNA/gDNA barcode ratio) relative to median wild-type variant (ratio to wild type); higher = more accumulation of the downstream cleavage product
# cond: experiment (reporter, strain, medium): exp 4a: truncated aprE reporter, strain BJT201 with 2% xylose (RNase J1 expressed); cleavage site: cggR-gapA (positions -7 to +36 mutated)
Form field (numeric): enter value without unit.

Look at this sequence and give its reported cleaved RNA product abundance. "ACAGACGAAGGAGCCGCAAAGAAGTTATTAAGGGATGTATAATCCCACAATATAAATATCTCTCACTTATTTAAA"
0.308

Similarly, "ACAGACGAAGGAGCCGCAAAGAAGTTATTAAATGATGAATAATCCCTCAATATATATATCTCTCACTTATTTAAA" ?
0.13

Similarly, "ACAGACGAAGGAGCCGCAAAGAAGTTATTAAGGGATGAATAGTCCTTCAATATAAATATCTCTCACTTATTTAAA" ?
0.359

Similarly, "ACAGACGAAGGAGCCGCATAGAAGTTACTAAGGGATGAATAATCCCTCAATATAAATATCTCTCACTTATTTAAA" ?
0.221

Similarly, "ACAGACGAAGGAGCCGCAAAGAAGTTATTATGGGATGATTAATCCCTCAATATAAATATCTCTCACTTATTTAAA" ?
0.414

Similarly, "ACAGACGAAGGAGCCGCATAGAAGTTATTCAGGGATGAATAATCCCTCAATATAAATATCTCTCACTTATTTAAA" ?
0.947

Similarly, "ACAGACGAAGGAGCCGCAAAGAAGTTATTAAAGGATGAATAATCCCTCAAAATAAATATCTCTCACTTATTTAAA" ?
0.152

Similarly, "ACAGACGAAGGAGCCGCAAAGAAGTTATTAAGGCATGAACAATCCCTCAATATAAATATCTCTCACTTATTTAAA" ?
0.0684

Similarly, "ACAGACGAAGGAGCCGCAAAGAATTTATTAAGGGATGAACAATCCCTCAATATAAATATCTCTCACTTATTTAAA" ?
0.451

Similarly, "ACAGACGAAGGAGCCGCAAAGAAGTTATCAAGGGATGAATAAACCCTCAATATAAATATCTCTCACTTATTTAAA" ?
0.205

Similarly, "ACAGACGAAGGAGCCGCAATGAAGTTATTAAGGGATGAATAATTCCTCAATATAAATATCTCTCACTTATTTAAA" ?
0.517

Similarly, "ACAGACGAAGGAGCCGCAAAGAAGTTATTAAGGGAAGAATAATCCCTCAAAATAAATATCTCTCACTTATTTAAA" ?
0.182

Similarly, "ACAGACGAAGGAGCCGCAAAGAAGTTATTAAGGGATGAATAATCCCTCAATCTAAATATCTCTCACTTATTTAAA" ?
0.138

Similarly, "ACAGACGAAGGAGCCGCAAAGACGTTATTAATGGATGAATAATCCCTCAATATAAATATCTCTCACTTATTTAAA" ?
0.115

Similarly, "ACAGACGAAGGAGCCGCAAAGAAGTTATTAATGGATGAATAATCCCTCAATATACATATCTCTCACTTATTTAAA" ?
0.165

====

# Test system: Bacillus subtilis
# experiment-notes: cleaved RNA product abundance (RNA/gDNA barcode ratio) relative to median wild-type variant (ratio to wild type); higher = more accumulation of the downstream cleavage product
# cond: experiment (reporter, strain, medium): exp 4a: truncated aprE reporter, strain BJT201 with 2% xylose (RNase J1 expressed); cleavage site: cggR-gapA (positions -7 to +36 mutated)
metric: cleaved RNA product abundance
Form field (numeric): enter value without unit.

Look at this sequence and give its reported cleaved RNA product abundance. "ACAGACGAAGGAGCCGCAAAGAAGTTATTAAGGGATGAATAATCCCTCAATATAAATTACTCTCACTTATTTAAA"
0.951

Similarly, "ACAGACGAAGGAGCCGCAAAGAAGTTATTAAGGGATGAATATTTCCTCAATATAAATATCTCTCACTTATTTAAA" ?
0.186

Similarly, "ACAGACGAAGGAGCCGCAAAGAAGTTATTACGGAATGAATAATCCCTCAATATAAATATCTCTCACTTATTTAAA" ?
0.0966

Similarly, "ACAGACGAAGGAGCCGCAAAGAAGTAATTAAGGGATGAATAATCCCTCGATATAAATATCTCTCACTTATTTAAA" ?
0.155

====

# System: Bacillus subtilis
# experiment-notes: cleaved RNA product abundance (RNA/gDNA barcode ratio) relative to median wild-type variant (ratio to wild type); higher = more accumulation of the downstream cleavage product
# cond: experiment (reporter, strain, medium): exp 4a: truncated aprE reporter, strain BJT201 with 2% xylose (RNase J1 expressed); cleavage site: cggR-gapA (positions -7 to +36 mutated)
metric: cleaved RNA product abundance

Short answer please: cleaved RNA product abundance, Bacillus subtilis, entry "ACAGACGAAGGAGCCGCACAGAAGTTATTAAGGAATGAATAATCCCTCAATATAAATATCTCTCACTTATTTAAA"
0.143

Similarly, "ACAGACGAAGGAGCCGCAAAGAAGTTATTAAGGGATAAATAATCCCTCAATATAAAAATCTCTCACTTATTTAAA" ?
0.943

Similarly, "ACAGACGAAGGAGCCGCAAAGAAGTTATTAATGGATGAATAATCCCTGAATATAAATATCTCTCACTTATTTAAA" ?
0.133

Similarly, "ACAGACGAAGGAGCCGCAAAGAAGTTATTTAGTGATGAATAATCCCTCAATATAAATATCTCTCACTTATTTAAA" ?
0.111

Similarly, "ACAGACGAAGGAGCCGCAAAGATGTTATTAAGGGATGAATAATCCCACAATATAAATATCTCTCACTTATTTAAA" ?
0.248

Similarly, "ACAGACGAAGGAGCCGCAAAAAAGTTAATAAGGGATGAATATTCCCTCAATATAAATATCTCTCACTTATTTAAA" ?
0.21

Similarly, "ACAGACGAAGGAGCCGCAAAGAAGTTAATAAGGGATGAATGATCCCTCAATATAAATATCTCTCACTTATTTAAA" ?
0.284

Similarly, "ACAGACGAAGGAGCCGCAAAGAAGTTATTAAGGCAAGAATAATCCCTCAATATAAATATCTCTCACTTATTTAAA" ?
0.115

Similarly, "ACAGACGAAGGAGCCGCAAAGAATTTATTAAGGGATGAATAACCCCTCAATATAAATATCTCTCACTTATTTAAA" ?
0.452

Similarly, "ACAGACGAAGGAGCCGCAAAGAAGTTATTAAGGGATGAATAAACCTTCAATATAAATATCTCTCACTTATTTAAA" ?
0.267

Similarly, "ACAGACGAAGGAGCCGCAAAGAAGTTATTAAGGGATAAATAATACCTCAATATAAATATCTCTCACTTATTTAAA" ?
0.0789

Similarly, "ACAGACGAAGGAGCCGCAAAGAAGTTATTAAGAGATGAATAATCCTTCAATATAAATATCTCTCACTTATTTAAA" ?
0.211

Similarly, "ACAGACGAAGGAGCCGCAAAGAAGTTATTAAGGGATGAATAATTTCTCAATATAAATATCTCTCACTTATTTAAA" ?
0.16

Similarly, "ACAGACGAAGGAGCCGCAAAAAAGTTATTAAGGGATGAATAATCCCTCAATATATATATCTCTCACTTATTTAAA" ?
1.08

Similarly, "ACAGACGAAGGAGCCGCAAAGAAGTTATTAATGGATGGATAATCCCTCAATATAAATATCTCTCACTTATTTAAA" ?
0.143

Similarly, "ACAGACGAAGGAGCCGCAAAGAAGTTATTAAGGAATGAATAATGCCTCAATATAAATATCTCTCACTTATTTAAA" ?
0.0706

Similarly, "ACAGACGAAGGAGCCGCTAAGAAGTTATTAAGGGATGAATAATCCCTAAATATAAATATCTCTCACTTATTTAAA" ?
0.831

Similarly, "ACAGACGAAGGAGCCGCAAAGAACTTATTAAGGGACGAATAATCCCTCAATATAAATATCTCTCACTTATTTAAA" ?
0.389

Similarly, "ACAGACGAAGGAGCCGCAAATAAGTTATTAATGGATGAATAATCCCTCAATATAAATATCTCTCACTTATTTAAA" ?
0.184

Similarly, "ACAGACGAAGGAGCCGCAAAGAAGTTATTAAGGGATGAATAATCCCTCAAAATAAATTTCTCTCACTTATTTAAA" ?
0.285

Similarly, "ACAGACGAAGGAGCCGCCAAGAAGTTATTAAGGAATGAATAATCCCTCAATATAAATATCTCTCACTTATTTAAA" ?
0.107

Similarly, "ACAGACGAAGGAGCCGCAAAGAAGTTATTAAGGCAGGAATAATCCCTCAATATAAATATCTCTCACTTATTTAAA" ?
0.167

Similarly, "ACAGACGAAGGAGCCGCAAAGAAGTTATTAAGGGATGAACAATCCCTCAATATTAATATCTCTCACTTATTTAAA" ?
0.189

Similarly, "ACAGACGAAGGAGCCGCAAAGAATTTATTAAGGGATGAATAATCCCTTAATATAAATATCTCTCACTTATTTAAA" ?
0.448

Similarly, "ACAGACGAAGGAGCCGCAAAGAAGTTACTAAGGGATGAATAATCCCTCAATATAAATATCTCTCACTTATTTAAA" ?
0.314

Similarly, "ACAGACGAAGGAGCCGCAAAGAACTTATTAACGGATGAATAATCCCTCAATATAAATATCTCTCACTTATTTAAA" ?
0.112

Similarly, "ACAGACGAAGGAGCCGCAAAGAAGTTATTAAGGGATAAATAATCCCTCAATATAAATGTCTCTCACTTATTTAAA" ?
0.539

Similarly, "ACAGACGAAGGAGCCGCAAAGAAGTTATTAAGGCATGAATAATCCCTCAGTATAAATATCTCTCACTTATTTAAA" ?
0.0715

Similarly, "ACAGACGAAGGAGCCGCAAAGAAGTTATTAAGCGATGAATAATCCCTCACTATAAATATCTCTCACTTATTTAAA" ?
0.0749

Similarly, "ACAGACGAAGGAGCCGCAAACAAGTTATTATGGGATGAATAATCCCTCAATATAAATATCTCTCACTTATTTAAA" ?
0.213
